# Test system: IL-2 in Jurkat (ATCC, clone E6.1) cells stimulated with anti-CD3/28/2
# assay.text: Jurkat IL-2 Assay
# Format: cell-based
# conditions: Homo sapiens; IL-2 inhibition, Jurkat cells, 30 min compound then anti-CD3/28/2 stimulation for 24 hours; mean value if tested more than once; read-out: IC50
measured.quantity: IC50

CO[C@@H](C)c1c(Nc2ccc([C@H](N(C)C(=O)C3CCC(CN)CC3)C(F)(F)F)cc2)cnc2nc(Cl)nn12 (stereo partly drawn) : 0.1 to 1 µM
CO[C@@H](C)c1c(Nc2ccc([C@H](N(C)C(=O)[C@H]3CC[C@H](O)CC3)C(F)(F)F)cc2)cnc2nc(Cl)nn12 : 0.1 to 1 µM
CO[C@@H](C)c1c(Nc2ccc([C@H](N(C)C(=O)C3CCCN(C)C3)C(F)(F)F)cc2)cnc2nc(Cl)nn12 (stereo partly drawn) : > 1 µM
CO[C@@H](C)c1c(Nc2ccc([C@H](N(C)C(=O)C3CCN(C(=O)C4CC4)C3)C(F)(F)F)cc2)cnc2nc(Cl)nn12 (stereo partly drawn) : 0.1 to 1 µM
CO[C@@H](C)c1c(Nc2ccc([C@H](N(C)C(C)=O)C(F)(F)F)cc2)cnc2nc(Cl)nn12 : 0.1 to 1 µM

# context switch: different compound, same IC50
compound CO[C@H](C)c1c(Nc2ccc([C@@H](N(C)C(=O)C3CCS(=O)(=O)CC3)C(F)(F)F)cc2)cnc2nc(Cl)nn12 , IC50 observed: > 1 µM

----------
pIC50: −log10 of the molar value. Where a name gives a salt, the structure may show the parent alone.
What follows is a record of pIC50 for full length MALT1 (Homo sapiens (Human), UniProt Q9UDY8).

Previously resolved entries follow.
CO[C@@H](C)c1c(Nc2ccc([C@H](N(C)C(=O)C3CCCN(S(C)(=O)=O)C3)C(F)(F)F)cc2)cnc2nc(Cl)nn12 (some centres unmarked) : 6.00 to 7.00
CO[C@@H](C)c1c(Nc2ccc([C@H](N(C)C(=O)C3CCNC3)C(F)(F)F)cc2)cnc2nc(Cl)nn12 (some centres unmarked) [Compound 2.3, hydrochloride] : 6.00 to 7.00
CO[C@@H](C)c1c(Nc2ccc([C@H](N(C)C(=O)C3CCCN(C)C3)C(F)(F)F)cc2)cnc2nc(Cl)nn12 (some centres unmarked) : 6.00 to 7.00
CO[C@@H](C)c1c(Nc2ccc(C(C)N(C)C(=O)C3CCCC3)cc2)cnc2nc(Cl)nn12 (some centres unmarked) : < 6.00
CO[C@@H](C)c1c(Nc2ccc([C@H](N(C)C(=O)C3CCN(S(C)(=O)=O)C3)C(F)(F)F)cc2)cnc2nc(Cl)nn12 (some centres unmarked) : 6.00 to 7.00

compound CO[C@@H](C)c1c(Nc2ccc([C@H](N(C)C(=O)C3CCN(C(=O)OC(C)(C)C)C3)C(F)(F)F)cc2)cnc2nc(Cl)nn12 (some centres unmarked) , pIC50 observed: 6.00 to 7.00

compound CNC(=O)N1CCC(C(=O)N(C)[C@@H](c2ccc(Nc3cnc4nc(Cl)nn4c3[C@H](C)OC)cc2)C(F)(F)F)C1 (some centres unmarked) , pIC50 observed: > 7.00

compound CO[C@@H](C)c1c(Nc2ccc([C@H](N(C)C(=O)C3CCCN(C(C)=O)C3)C(F)(F)F)cc2)cnc2nc(Cl)nn12 (some centres unmarked) , pIC50 observed: > 7.00

compound CO[C@@H](C)c1c(Nc2ccc([C@H](N(C)C(=O)C3CCN(C(=O)OC(C)(C)C)CC3)C(F)(F)F)cc2)cnc2nc(Cl)nn12 , pIC50 observed: 6.00 to 7.00
